- target_system: Complement factor D (Homo sapiens)
- Sequence (P00746 whole entry): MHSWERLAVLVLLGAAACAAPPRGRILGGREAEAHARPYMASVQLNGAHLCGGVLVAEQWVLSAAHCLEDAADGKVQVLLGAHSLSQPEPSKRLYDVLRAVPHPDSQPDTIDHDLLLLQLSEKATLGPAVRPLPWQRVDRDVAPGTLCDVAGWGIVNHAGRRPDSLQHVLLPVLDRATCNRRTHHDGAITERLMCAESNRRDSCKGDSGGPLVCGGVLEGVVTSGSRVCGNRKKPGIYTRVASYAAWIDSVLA
- method_description: In Vitro Assay: Recombinant human factor D (expressed in E. coli and purified using standard methods) at 10 nM concentration is incubated with test compound at various concentrations for 1 hour at room temperature in 0.1 M Hepes buffer, pH 7.5, containing 1 mM MgCl2, 1 M NaCl and 0.05% CHAPS. A synthetic substrate Z-Lys-thiobenzyl and 2,4-dinitrobenzenesulfonyl-fluoresceine are added to final concentrations of 200 μM and 25 μM, respectively. The increase in fluorescence is recorded at excitation of 485 nm and emission at 535 nm in a microplate spectrofluorimeter.
pIC50: −log10 of the molar value.
Catalogue of pIC50 values
reported_endpoint: pIC50

>>> reported("CC(F)(F)CCNC(=O)[C@@H]1C[C@H]2C[C@H]2N1C(=O)Cn1nc(C(N)=O)c2ccccc21")
5.98
>>> reported("CC(=O)c1nn(CC(=O)N2[C@@H]3C[C@@H]3C[C@H]2C(=O)NCCCC(F)(F)F)c2ncccc12")
5.94
